In this section, each of the compounds is paired with its reported Production rate of Alvocidib.
Assay: Evaluation of conversion rate to active form in buffer solution (Experimental Example 1)
Format: physicochemical
Settings: pH5.0, 1 hr, 37° C., 25 umol/L in buffer solution
Procedure: For Examples 1 to 16 and Comparative Examples 1 to 14, the attrition rate of the test compound and the conversion rate of the test compound to Alvocidib in a buffer solution were calculated by the following method. Examples 1 to 16 and Comparative Examples 1 to 14 were each left in buffer solutions adjusted to pH 5.0, 5.5, 6.0, 6.5, 7.0 and 7.4, respectively, at a concentration of 25 umol/L at 37° C. […]
Where a name gives a salt, the structure may show the parent alone.
outcome.measure: Production rate of Alvocidib (%)

{"compound": "CN1CC[C@H](c2c(OC(=O)N(C)C[C@@H]3CCCCN3)cc(O)c3c(=O)cc(-c4ccccc4Cl)oc23)[C@H](O)C1", "outcome.measure": "Production rate of Alvocidib", "result.units": "%", "test.result": 1.3}
{"compound": "CN1CC[C@H](c2c(OC(=O)N(CCC(F)(F)F)CC3CCCCN3)cc(O)c3c(=O)cc(-c4ccccc4Cl)oc23)[C@H](O)C1 (stereo partly drawn)", "outcome.measure": "Production rate of Alvocidib", "result.units": "%", "test.result": 4.9}
{"compound": "CN1CC[C@H](c2c(OC(=O)N(Cc3ccccc3)CC3CCCCN3)cc(O)c3c(=O)cc(-c4ccccc4Cl)oc23)[C@H](O)C1 (stereo partly drawn)", "outcome.measure": "Production rate of Alvocidib", "result.units": "%", "test.result": 2.6}
{"compound": "CCCN(C[C@@H]1CCCCN1)C(=O)Oc1cc(O)c2c(=O)cc(-c3ccccc3Cl)oc2c1[C@H]1CCN(C)C[C@H]1O", "outcome.measure": "Production rate of Alvocidib", "result.units": "%", "test.result": 1.1}
{"compound": "CCNC(=O)Oc1cc(O)c2c(=O)cc(-c3ccccc3Cl)oc2c1[C@H]1CCN(C)C[C@H]1O [Comparative Example 1, reference compound]", "outcome.measure": "Production rate of Alvocidib", "result.units": "%", "test.result": 58.5}
{"compound": "CCN(C[C@H]1CCCCN1)C(=O)Oc1cc(O)c2c(=O)cc(-c3ccccc3Cl)oc2c1[C@H]1CCN(C)C[C@H]1O", "outcome.measure": "Production rate of Alvocidib", "result.units": "%", "test.result": 0.5}
{"compound": "COCCN(CC1CCCCN1)C(=O)Oc1cc(O)c2c(=O)cc(-c3ccccc3Cl)oc2c1[C@H]1CCN(C)C[C@H]1O (stereo partly drawn)", "outcome.measure": "Production rate of Alvocidib", "result.units": "%", "test.result": 1.5}
{"compound": "CCCN(C[C@H]1CCCCN1)C(=O)Oc1cc(O)c2c(=O)cc(-c3ccccc3Cl)oc2c1[C@H]1CCN(C)C[C@H]1O", "outcome.measure": "Production rate of Alvocidib", "result.units": "%", "test.result": 1.3}
{"compound": "CCN(CC1CCCCN1)C(=O)Oc1cc(O)c2c(=O)cc(-c3ccccc3Cl)oc2c1[C@H]1CCN(C)C[C@H]1O (stereo partly drawn) [Example 7, dihydrochloride]", "outcome.measure": "Production rate of Alvocidib", "result.units": "%", "test.result": 0.0}
